# Tested on: Wolbachia pipientis
# Run description: Anti-Wolbachia Cell-Based Screen
# Type: functional
# Design: scale not given: in the data most compounds retested in dose-response had high values
# Protocol conditions: 5 µM
The whole screen tested about 48,000 compounds, of which about 13,000 (27%) showed an effect of 50% or more. The list shows a part of the results.
Measured Percent Effect by item
Numeric answer only, unit % assumed.

{"Compound": "O=C(NCCc1ccc(Cl)cc1)c1coc(CN2CCOCC2)c1", "Percent Effect [%]": -3.788}
{"Compound": "CCCC1CCN(C(=O)c2coc(COc3ccc(OC)cc3)n2)C1 (configuration not stated)", "Percent Effect [%]": 13.18}
{"Compound": "CCc1n[nH]c(C2CN(Cc3csc(C4CCCC4)n3)CCO2)n1 (configuration not stated)", "Percent Effect [%]": 5.778}
{"Compound": "C[C@H]1CN(C(=O)c2ccoc2)C[C@@]12CCN(CCN(C)C)C2=O.O=C(O)C(F)(F)F", "Percent Effect [%]": 113.7}
{"Compound": "Cc1cc(C)c(CNC(=O)N2CCNC(=O)C2)c(=O)[nH]1", "Percent Effect [%]": -6.191}
{"Compound": "CCC[C@H]1CN(Cc2cc(C)no2)C[C@@H]1NC(=O)C1(COC)CCC1", "Percent Effect [%]": -6.466}

Now turn to the next compound.
Dear colleague, I am looking for the recorded Percent Effect of the following compound: `Cc1ccc(C)c(NC(=O)Cn2nc(C)c(C#N)c2N)c1`
-3.359

* * *

# Test system: Wolbachia pipientis
# Run description: Anti-Wolbachia Cell-Based Screen
# Assay type: functional
# Parameters: scale not given: in the data most compounds retested in dose-response had high values
# Protocol conditions: 5 µM
The whole screen tested about 48,000 compounds, of which about 13,000 (27%) showed an effect of 50% or more. The list shows a part of the results.
Readout label: Percent Effect (%)
Give the value in % but do not write % after it.

{"Molecule": "O=C(CCCc1ccccc1)N1CCC(Nc2cccnn2)CC1", "Assay target": "Wolbachia pipientis", "Percent Effect (%)": 109.6}
{"Molecule": "O=C(CCn1ccc2ccccc21)N1CCC(Nc2cccnn2)CC1", "Assay target": "Wolbachia pipientis", "Percent Effect (%)": -13.71}
{"Molecule": "Cc1ncccc1NC(=O)[C@@H]1CCO[C@@H]2CCN(c3ccccc3)C[C@@H]21.O=C(O)C(F)(F)F.O=C(O)C(F)(F)F", "Assay target": "Wolbachia pipientis", "Percent Effect (%)": 108.5}
{"Molecule": "CCc1nc(C)c(C(=O)N2CCCC(c3noc(C)n3)C2)s1 (centres undefined)", "Assay target": "Wolbachia pipientis", "Percent Effect (%)": -3.627}
{"Molecule": "Cc1noc(C)c1CN(C)Cn1nccc1-c1cccnc1", "Assay target": "Wolbachia pipientis", "Percent Effect (%)": -3.571}
{"Molecule": "Cc1cccc(N2CCC3(CCCN3Cc3c(C)nn(C)c3C)CC2)n1", "Assay target": "Wolbachia pipientis", "Percent Effect (%)": 12.41}

Given the entry `Cc1cnccc1-n1nc(C(C)C)nc1CS(C)(=O)=O` , report its measured Percent Effect.
-11.94

Please look up its Percent Effect: CC(NC(=O)c1cc(Br)c2c(c1)OCCO2)C(N)=O (centres undefined)
-7.344

Please report the recorded Percent Effect for CCCN1C(=O)c2ccccc2C1OC (centres undefined) .
104.1

Just for reference, ChEMBL document CHEMBL3988442 is where these values come from.
